# credit: the supplement of paper PMC10567573

B1: ZNF232 (parent)
chain: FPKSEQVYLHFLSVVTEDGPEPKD

Variants of: B1
Test Protocol: protein stability index of a GFP-peptide fusion (GPS, HEK-293T) (PSI 1-6); higher = more stable;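 note: lentivirally expressed fusions sorted by FACS into six bins by GFP to DsRed ratio, PSI derived from sequencing read proportions per bin multiplied by bin number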
Run Parameters: c terminus: a fixed tail appended
Kindly return Criterion met if reported protein stability index is no lower than 2; return Criterion not met if it is lower.

Mutation Label: K3V
Answer Label: Criterion met
//
Mutation Label: F11H
Answer Label: Criterion met
//
Mutation Label: S13T
Answer Label: Criterion not met
//
Mutation Label: P20L
Answer Label: Criterion not met
//
Mutation Label: V7Q
Answer Label: Criterion not met
//
Mutation Label: D18F
Answer Label: Criterion met
//
Mutation Label: G19P
Answer Label: Criterion met
//
Mutation Label: K3L
Answer Label: Criterion met
//
Mutation Label: E5A
Answer Label: Criterion met
//
Mutation Label: P22K
Answer Label: Criterion not met
//
Mutation Label: L12S
Answer Label: Criterion met
//
Mutation Label: V14D
Answer Label: Criterion met
//
Mutation Label: V7E
Answer Label: Criterion met
//
Mutation Label: S13P
Answer Label: Criterion met
//
Mutation Label: F1P
Answer Label: Criterion met
//
Mutation Label: G19Y
Answer Label: Criterion not met
//
Mutation Label: F1C
Answer Label: Criterion met
//
Mutation Label: E5G
Answer Label: Criterion not met
//
Mutation Label: L9W
Answer Label: Criterion not met
//
Mutation Label: V15T
Answer Label: Criterion met
//
Mutation Label: Q6C
Answer Label: Criterion met
//
Mutation Label: Q6L
Answer Label: Criterion met
